Biological target: human activated kallikrein enzyme (Homo sapiens (Human))
Test: Inhibition of human activated kallikrein enzyme, fluorogenic peptide substrate assay (two formats)
Assay type: biochemical
Conditions: Table 2; column head prints nM, ranges defined in μM; read-out: pKal EC50
readout name: EC50

Here is how some compounds turned out for EC50.
>>> endpoint_value("Nc1nccc2cc(CCNC(=O)c3csc([C@@H]4C[C@@H](N)CN4C(=O)c4cn5cc(Cl)ccc5n4)n3)ccc12 [Compound 53]")
"≤ 100 nM"
>>> endpoint_value("Cc1cc2c(N)nccc2c(C)c1CNC(=O)c1csc([C@@H]2C[C@@H](N)CN2C(=O)c2cn3cc(Cl)ccc3n2)n1 [Compound 60]")
"≤ 100 nM"
>>> endpoint_value("CNC(=O)[C@H](CCCCNC(=N)N)NC(=O)c1csc([C@@H]2C[C@@H](N)CN2C(=O)OCc2cccc(Cl)c2)n1 [Compound 16]")
"1000 to 5000 nM"
>>> endpoint_value("CNC(=O)[C@H](CCCCNC(=N)N)NC(=O)c1csc([C@@H]2C[C@@H](N)CN2C(=O)c2cn3cc(C(F)(F)F)ccc3n2)n1 [Compound 19]")
"≤ 100 nM"
>>> endpoint_value("CNC(=O)[C@H](CCCCNC(=N)N)NC(=O)c1csc([C@@H]2C[C@@H](N)CN2C(=O)c2ccc3ncc(Cl)cc3c2)n1 [Compound 41]")
"100 to 1000 nM"

Now let's try a different one.
# EC50 (compound: CNC(=O)[C@H](CCCCNC(=N)N)NC(=O)c1csc([C@@H]2C[C@@H](NC(C)=O)CN2C(=O)c2cn3cc(Cl)ccc3n2)n1 [Compound 35] ) is 1000 to 5000 nM

====

Biological target: human activated kallikrein enzyme (Homo sapiens (Human), UniProt P03952)
Sequence (P03952 391-638): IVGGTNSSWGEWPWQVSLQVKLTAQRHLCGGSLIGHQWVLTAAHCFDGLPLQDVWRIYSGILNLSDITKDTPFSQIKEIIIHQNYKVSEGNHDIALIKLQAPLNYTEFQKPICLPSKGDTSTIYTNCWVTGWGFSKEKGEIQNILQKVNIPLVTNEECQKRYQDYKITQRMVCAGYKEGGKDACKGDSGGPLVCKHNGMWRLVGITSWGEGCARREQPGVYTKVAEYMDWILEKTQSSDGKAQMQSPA
Sequence (P03952 20-390 partner): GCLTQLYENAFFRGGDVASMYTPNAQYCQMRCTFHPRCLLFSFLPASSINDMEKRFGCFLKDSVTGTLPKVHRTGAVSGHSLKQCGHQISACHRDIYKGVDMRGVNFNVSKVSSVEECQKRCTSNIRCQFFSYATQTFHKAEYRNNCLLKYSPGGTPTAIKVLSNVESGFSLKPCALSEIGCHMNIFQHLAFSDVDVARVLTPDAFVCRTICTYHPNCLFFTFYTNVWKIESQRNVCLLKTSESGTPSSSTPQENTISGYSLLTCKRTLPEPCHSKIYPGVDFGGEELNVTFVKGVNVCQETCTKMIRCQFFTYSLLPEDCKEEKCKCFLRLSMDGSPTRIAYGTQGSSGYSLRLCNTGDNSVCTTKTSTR
Test: Inhibition of human activated kallikrein enzyme, fluorogenic peptide substrate assay (two formats)
Assay type: biochemical
Settings: Table 2; column head prints nM, ranges defined in μM; read-out: pKal EC50
readout name: EC50

# EC50 (compound: CNC(=O)[C@H](CCCCNC(=N)N)NC(=O)c1csc([C@H]2C[C@H](N)CN2C(=O)c2cn3cc(Cl)ccc3n2)n1 ) is 1000 to 5000 nM

# EC50 (compound: CNC(=O)[C@H](CCCCNC(=N)N)NC(=O)c1csc([C@@H]2C[C@@H](N)CN2C(=O)c2cn(C)c(C)n2)n1 ) is > 9900 nM

# EC50 (compound: N[C@@H]1C[C@@H](c2nc(C(=O)NCc3n[nH]c4cc(Cl)ccc34)cs2)N(C(=O)c2cn3cc(Cl)ccc3n2)C1 ) is > 9900 nM

# EC50 (compound: CNC(=O)[C@H](Cc1c[nH]cn1)NC(=O)c1csc([C@@H]2C[C@@H](N)CN2C(=O)c2cn3cc(Cl)ccc3n2)n1 ) is > 9900 nM

# EC50 (compound: N[C@@H]1C[C@@H](c2nc(C(=O)NCc3n[nH]c4ccc(Cl)cc34)cs2)N(C(=O)c2cn3cc(Cl)ccc3n2)C1 ) is 5000 to 9900 nM

# EC50 (compound: CNC(=O)[C@H](CCCCNC(=N)N)NC(=O)c1csc([C@@H]2C[C@@H](N)CN2C(=O)c2cn3cc(Cl)ccc3n2)n1 ) is ≤ 100 nM

# EC50 (compound: CNC(=O)[C@H](CCCNC(=N)N)NC(=O)c1csc([C@@H]2C[C@@H](N)CN2C(=O)c2cn3cc(Cl)ccc3n2)n1 ) is 5000 to 9900 nM
